test: folding stability dG unfold (combined trypsin and chymotrypsin); higher = more stable
I'd appreciate it if you could supply folding stability dG unfold values for the items below.
Numeric only. Scale: kcal/mol

Indicate the recorded folding stability dG unfold value for this sequence: SAGGSAGGSEKPPVKTITLVLKVDDAEEAAKALAEELGVEITRIEVTRDENGKVYVRITIRLPSAGGSAGGS [r12_359_TrROS_Hall] 3.9

Give folding stability dG unfold for the following sequence: SAGNIKISYDPDDGWLTITFPVAPGQEFSFKLNIMLPENGAKIKNVEVTGPLKDGQPVTITMKVTGIKPSAG [r5_737_TrROS] 3.27

Name the recorded folding stability dG unfold of the item SAGGSAGGSAGGEKKWIFMVSFRHPDGKERKFTFPWNDLEEIKENLPGIDDVEIEWMPMSAGGSAGGSAGGS [r10_437_TrROS] in your answer. 0.773

Provide folding stability dG unfold value for the following sequence: SAGGSAPGKKTIKIEIIFPFPEEQAKEFADYIAKGIADETGHDPENIDIKVEVHVFDPANNEPRPFSAGGSA [r15_918_TrROS] -0.511

Give folding stability dG unfold for SAGGKVYYIEIPPELLEAFPDLVVEPVEQPEDFVVAPVFLSDKVLLVPIRVFSEDGKELFDFTLTSNPSAGG [r13_129_TrMRF] 1.62

Read off the recorded folding stability dG unfold for SAGGSKWRMYEITLELGDKPVKITVYYMDGNYSVAIKFPPGRKVDIPFDGPMSPEDAAKKALEALGSAGGSA [r2_92_TrROS] 3.24

Give the measured folding stability dG unfold for SAGGMPKKITKLELLSETYDPLTNTYTVTVRATFDDGTEKVIELTLPRSEYEKLSKEEIKKRAIDLLLSAGG [r13_512_JUSTAS] 5.52

Output folding stability dG unfold of SAGGKNVKKYVPIEIEIEAPSPEVAEATAEEIEKIIREKFPGAKVEVEMEPLPDGGYKLKVKVYVPVGSAGG [r13_17_TrMRF] 3.11

Look up folding stability dG unfold of SAGGSAKKKKVTITIEVVKNKETGEYLVRIKIKVDGKEYEIVMSEDELKALIDAGVKIEKIEVYPRSAGGSA [r15_783_TrROS_Hall] and report it. 2.59

Look up and report measured folding stability dG unfold for this entry: SAGGSAGGSAGGSVSVNIPLEELKERVPPSLSVSVSPTPVPEGGGVRVPVTLTSPAELGSAGGSAGGSAGGS [r4_119_JUSTAS] 0.763

Return folding stability dG unfold (reported value) for this sequence: SMKLIGYDPVTGKPVTLTFDPETKTVTVTHPNGEKITAPAESITFDPETGTVTITLPTKTVTFYVPPEANSA [r9_325_TrMRF] 4.82

Report measured folding stability dG unfold; entry is SAGMLSVEQLLEALKEGKEILIVAESPEERERAKRLLAEELGLSEEEIDALLKKAKIKVLPADDPELKKSAG [r5_368_TrROS_Hall] 2.46

Give the reported value of folding stability dG unfold for this record: SAGGSAGGSAGGSVSELPPISTKTTTTVTTTSDGTKVVYTTTTYSDGTTTTTSGPVPAASAGGSAGGSAGGS [r10_682_JUSTAS] 1.09

Hello, please tell me recorded folding stability dG unfold for this one: SAGGSAGGSKPDEVEVIEIKVPPGARVRLPDGSVVEIKPGDPNTTYRIVVDKKNKKITIEPLDSAGGSAGGS [r12_338_TrROS_Hall] 1.46

Retrieve folding stability dG unfold measured for SAGGSAGGSKIEITVKTKEELLEAIRKLAEEKGYEIVSIKIEKLPDGTYKVTIEIRKNDPLLKSAGGSAGGS [r12_647_TrROS_Hall] and print it. 2.38

Please give the documented folding stability dG unfold of KPKIKITITFNKETGKITITAVNKDNNVVVKTEFELKDGKLTMKIEVKNKKTNKTYTIEIEIKLLKPGEKLS [r1_404_TrROS_Hall] 3.86

Provide one value: measured folding stability dG unfold of SAGGSAGGSAGKIEIDPSKPALVRVRLVPENGIPREIVVEAGDLSKLLPENFKVLSIELGSAGGSAGGSAGG [r17_449_TrMRF] 0.407

Identify measured folding stability dG unfold associated with SAGGSAGGSAGEFELLSVEYFPPIGRVRVAYRRGDLVLVVDFFNPENPEIRPVSLSDELGSAGGSAGGSAGG [r17_145_TrMRF] 2.59

Identify folding stability dG unfold associated with the sequence SAGGSAGGSAGVVRTDDGREVTVRRTVRVEVRLEITITASEEDREKAAAALERLLRELGLSAGGSAGGSAGG [r17_501_TrROS_Hall] 2.86

Answer with the recorded folding stability dG unfold of SAGGSMEEEFAARGATVTIDPEKGVITVTFYEEVTQPDGTPVLRRKGTLTIEVPGNDPSQALAKALEESAGG [r13_924_JUSTAS] only. 1.96

Fill in reported folding stability dG unfold for this entry: SAGGSAVEFTEPGAELLSEEKLPDGTVVKRVLLPDGSVLLLLPDNSIKTRSLSNPNTSLSEWDPELSAGGSA [r15_692_JUSTAS] 0.491

Report measured folding stability dG unfold; entry is SAGGMPKTIEVEIVFKRDEEGKIGIDKIKKAAEELAKKFPEVKKVEVDIEEDPETDYVKVKVKVEVESAGGS [r8_258_TrMRF] 2.1

Give recorded folding stability dG unfold. SAGGMELTIPLPNGKLLKIKVEEVKAEPVLVEFELRDANGKLIDTIPAPSGFKISIRFSVEIYDPNEYSAGG [r13_848_TrMRF] 3.61
